- ASSAY_SYSTEM: angiotensin I-converting enzyme (ACE) (Homo sapiens)
Peptide text beside a SMILES is read from it.
PROPERTY_NAME: IC50 (nM)
Provide the reading as a plain figure in nM.

Worked cases, IC50 given:
CC(C)C[C@H](N)C(=O)N[C@H](C(=O)N[C@@H](CCCNC(=N)N)C(=O)O)C(C)C [GVP-4, LVR] (H-Leu-Val-Arg-OH; N-terminus and C-terminus assumed)    67
CC(C)C[C@H](NC(=O)[C@H](Cc1c[nH]cn1)NC(=O)[C@@H](NC(=O)[C@@H](N)CCCCN)C(C)C)C(=O)O [GVP-3, KVHL] (H-KVHL-OH)    292
CC(C)C[C@H](NC(=O)[C@@H](NC(=O)[C@@H](N)CCCCN)C(C)C)C(=O)N[C@@H](Cc1c[nH]cn1)C(=O)O [GVP-2, KVLH] (H-KVLH-OH)    162
CC(C)C[C@H](NC(=O)[C@@H](N)CCCCN)C(=O)N[C@@H](CCC(N)=O)C(=O)N[C@@H](CCC(=O)O)C(=O)O [GVP-1, KLQE] (H-KLQE-OH)    2960

Lookup: Retrieve IC50 on angiotensin I-converting enzyme (ACE) (Homo sapiens); query CC(C)C[C@H](NC(=O)[C@H](CO)NC(=O)[C@H](CC(N)=O)NC(=O)[C@@H](N)CC(C)C)C(=O)O [GVP-6, LNSL] (H-LNSL-OH; N-terminus and C-terminus assumed)
Found: 1390

---

- ASSAY_SYSTEM: angiotensin I-converting enzyme (ACE) (Homo sapiens, UniProt P12821)
- Sequence (P12821 30-1306, species assumed): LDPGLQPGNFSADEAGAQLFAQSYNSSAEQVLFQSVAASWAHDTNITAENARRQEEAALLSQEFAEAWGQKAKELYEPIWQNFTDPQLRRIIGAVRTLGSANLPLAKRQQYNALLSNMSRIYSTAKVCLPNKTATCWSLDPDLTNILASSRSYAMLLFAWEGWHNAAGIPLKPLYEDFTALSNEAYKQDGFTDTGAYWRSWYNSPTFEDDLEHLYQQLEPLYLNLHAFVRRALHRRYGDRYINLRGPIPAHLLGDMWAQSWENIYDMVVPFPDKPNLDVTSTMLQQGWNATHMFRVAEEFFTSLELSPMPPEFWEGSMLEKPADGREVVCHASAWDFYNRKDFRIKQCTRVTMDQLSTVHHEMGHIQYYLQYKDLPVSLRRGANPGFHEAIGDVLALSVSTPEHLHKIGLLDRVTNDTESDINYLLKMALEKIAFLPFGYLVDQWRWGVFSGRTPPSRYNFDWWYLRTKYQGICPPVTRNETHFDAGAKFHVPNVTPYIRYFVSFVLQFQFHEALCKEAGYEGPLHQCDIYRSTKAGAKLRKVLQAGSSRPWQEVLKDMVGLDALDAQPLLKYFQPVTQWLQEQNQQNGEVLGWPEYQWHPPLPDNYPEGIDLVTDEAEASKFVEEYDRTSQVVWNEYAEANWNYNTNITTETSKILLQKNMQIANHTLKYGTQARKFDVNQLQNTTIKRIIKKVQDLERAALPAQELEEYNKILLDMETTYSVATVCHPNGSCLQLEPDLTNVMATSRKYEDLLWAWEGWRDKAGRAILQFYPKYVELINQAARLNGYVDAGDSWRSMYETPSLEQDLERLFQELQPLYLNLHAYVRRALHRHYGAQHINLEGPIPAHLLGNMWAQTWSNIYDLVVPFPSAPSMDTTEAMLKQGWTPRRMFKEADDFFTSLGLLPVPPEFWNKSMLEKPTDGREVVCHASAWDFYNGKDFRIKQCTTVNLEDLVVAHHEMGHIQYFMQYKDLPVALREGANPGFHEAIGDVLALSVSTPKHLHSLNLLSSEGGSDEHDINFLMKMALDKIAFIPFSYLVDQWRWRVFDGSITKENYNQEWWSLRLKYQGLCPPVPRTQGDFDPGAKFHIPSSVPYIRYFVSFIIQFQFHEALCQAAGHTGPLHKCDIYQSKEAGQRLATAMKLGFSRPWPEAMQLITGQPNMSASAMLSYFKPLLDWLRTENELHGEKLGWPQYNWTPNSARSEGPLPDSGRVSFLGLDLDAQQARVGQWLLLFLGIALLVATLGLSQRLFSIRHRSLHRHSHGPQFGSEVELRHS
- TEST_METHOD_NOTES: ACE inhibitory activity assay (Dojindo ACE Kit)
- Type: biochemical
- Parameters: purchased Dojindo Laboratories, Kumamoto, Japan
- ASSAY_CONDITIONS: synthetic peptides with the sequences identified in <1 kDa fraction; triplicate experiments
Ends that are not written are not given here.
PROPERTY_NAME: IC50 (µM)
Provide the reading as a plain figure in µM.

KLLWNGKM [GVP-10, KLLWNGKM]    0.007
YALPHAL [GVP-11, YALPHAL]    0.795
PGLADMR [GVP-8, PGLADMR]    0.513

Please examine the following record next.
Lookup: Report IC50, nothing else, for this substance: ALRPKF [GVP-7, ALRPKF]
Found: 0.024
